System: SOX2
Test: Screen of a library of FDA-approved drugs for SOX2 antibody staining in A375 cells treated with PLX4720 and AZD6244
Details: Z-test against negative controls (DMSO); single dose 5 uM
observation type: z
Simply state the number, no unit and no words.

Lookup: Field: z (SOX2). Entry: CCC(=O)O[C@]1(C(=O)SCF)[C@H](C)C[C@H]2[C@@H]3C[C@H](F)C4=CC(=O)C=C[C@]4(C)[C@@]3(F)[C@@H](O)C[C@@]21C [FLUTICASONE PROPIONATE]
Found: 4.067

Lookup: Can you handle CC(=O)OCC(=O)[C@@]1(O)CC[C@H]2[C@@H]3CCC4=CC(=O)C=C[C@]4(C)[C@@]3(Cl)[C@@H](Cl)C[C@@]21C [DICHLORISONE ACETATE] next?
Found: 5.445

====

Test system: SOX2
Assay: Screen of a library of FDA-approved drugs for SOX2 antibody staining in A375 cells treated with PLX4720 and AZD6244
Conditions: A375 cells, 5 uM test drug with 1 uM PLX4720 and 0.5 uM AZD6244, 24 h; normalized and geometry-corrected (loess) signal
observation type: cor. loess
Output: the number by itself.

Consider the reported cor. loess for these molecules:
Lookup: Report cor. loess for CC(=O)c1cc2c(o1)C(=O)c1ccccc1C2=O please.
Found: 0.8204

Lookup: Same read-out for CC(=O)O[C@H]1C(=O)[C@@]2(C)[C@H]([C@H](OC(=O)c3ccccc3)[C@]3(O)C[C@H](OC(=O)[C@H](O)[C@@H](NC(=O)c4ccccc4)c4ccccc4)C(C)=C1C3(C)C)[C@]1(OC(C)=O)CO[C@@H]1C[C@@H]2O ?
Found: 0.341

Lookup: Subsequent entry: COC(=O)C[C@](O)(CCCC(C)(C)O)C(=O)O[C@@H]1C(OC)=C[C@]23CCCN2CCc2cc4c(cc2[C@H]13)OCO4
Found: 1.181

Lookup: // query: O=[N+]([O-])C(Br)(CO)CO
Found: 0.4507

Lookup: Same question, CCCOc1ccc2nc(NC(=O)OC)[nH]c2c1 this time
Found: 0.4781

Lookup: Similarly, O=C1c2ccccc2C(=O)C1c1ccc(Cl)cc1 ?
Found: 0.3463

Lookup: Moving on to CC(=O)OCC(=O)[C@@]1(O)CC[C@H]2[C@@H]3CCC4=CC(=O)C=C[C@]4(C)[C@@]3(Cl)[C@@H](Cl)C[C@@]21C [DICHLORISONE ACETATE]
Found: 0.4911

Lookup: Next molecule up: Cc1ccc(-c2nc3ccc(C)cn3c2CC(=O)N(C)C)cc1
Found: 0.2522

Further cases:
Lookup: # get_value(readout='cor. loess', item= COc1cc([C@@H]2c3cc4c(cc3[C@@H](O[C@@H]3O[C@@H]5CO[C@@H](c6cccs6)O[C@H]5[C@H](O)[C@H]3O)[C@H]3COC(=O)[C@H]23)OCO4)cc(OC)c1O [TENIPOSIDE] )
Found: 0.6446

Lookup: Try this molecule too: Cc1c(OCC(F)(F)F)ccnc1C[S+]([O-])c1nc2ccccc2[nH]1 (stereo not drawn)
Found: 0.2732

Lookup: Can you check C[C@H]1O[C@@H](O[C@H]2[C@@H](O)C[C@H](O[C@H]3[C@@H](O)C[C@H](O[C@H]4CC[C@@]5(C)[C@H](CC[C@@H]6[C@@H]5C[C@@H](O)[C@]5(C)[C@@H](C7=CC(=O)OC7)CC[C@]65O)C4)O[C@@H]3C)O[C@@H]2C)C[C@H](O)[C@@H]1O next?
Found: 1.623

Lookup: Another: C[C@H]1C[C@@H]2[C@H]([C@@H](O)C[C@@]3(C)[C@H]2CC[C@]3(O)C(=O)COC(=O)CCC(=O)O)[C@@]2(C)C=CC(=O)C=C12 [METHYLPREDNISOLONE SODIUM SUCCINATE]
Found: 0.4008

Lookup: // repeat for CCOc1cc2ncc(C#N)c(Nc3ccc(F)c(Cl)c3)c2cc1NC(=O)/C=C/CN(C)C [Pelitinib (EKB-569), Pelitinib] and report
Found: 0.7376

Lookup: Also, C[C@@H]1C[C@@H]([C@H](O)CC2CC(=O)NC(=O)C2)C(=O)[C@@H](C)C1 [CYCLOHEXIMIDE] please.
Found: 0.6971

Lookup: Here is the next molecule: CO[C@H]1/C=C/O[C@@]2(C)Oc3c(C)c(O)c4c(O)c(c(/C=N/N5CCN(C)CC5)c(O)c4c3C2=O)NC(=O)/C(C)=C\C=C\[C@H](C)[C@H](O)[C@@H](C)[C@@H](O)[C@@H](C)[C@H](OC(C)=O)[C@@H]1C
Found: 0.4025

Values compiled from patent US20200325543A1.
